target: purified human MAP4K4 kinase domain (Homo sapiens, UniProt O95819); construct: purified human MAP4K4 kinase domain; assay: MAP4K4 Inhibition Assay Protocol No. 1 (Caliper LabChip, moesin-derived peptide phosphorylation); assay type: biochemical; conditions: Assay 1; 1 nM enzyme, 10 uM ATP, 45 min
Sequence (O95819 25-289 limits assumed): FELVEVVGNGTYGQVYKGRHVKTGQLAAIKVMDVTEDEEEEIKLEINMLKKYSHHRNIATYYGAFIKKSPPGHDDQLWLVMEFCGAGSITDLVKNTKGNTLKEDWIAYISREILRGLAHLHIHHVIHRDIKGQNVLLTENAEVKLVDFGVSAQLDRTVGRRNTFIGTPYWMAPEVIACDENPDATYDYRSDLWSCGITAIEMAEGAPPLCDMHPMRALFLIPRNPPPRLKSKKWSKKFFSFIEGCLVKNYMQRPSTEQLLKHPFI
MEASURE_NAME: IC50 (µM)

{"columns": ["COMPOUND", "TESTED_ON", "IC50, µM"],
 "data": [
  ["Nc1ncc(C(=O)N2CCN(CCO)CC2)c2ccc(-c3cccc(F)c3)cc12 [Example 65]", "purified human MAP4K4 kinase domain (Homo sapiens, UniProt O95819)", 1.7],
  ["CC(=O)NCCNC(=O)c1cnc(N)c2cc(-c3cccc(F)c3)ccc12 [Example 80]", "purified human MAP4K4 kinase domain (Homo sapiens, UniProt O95819)", 0.25],
  ["C[C@H](NC(=O)c1cnc(N)c2cc(-c3cccc(F)c3)ccc12)C(N)=O [Example 85]", "purified human MAP4K4 kinase domain (Homo sapiens, UniProt O95819)", 0.363],
  ["N#CCNC(=O)c1cnc(N)c2cc(-c3cccc(F)c3)ccc12 [Example 111]", "purified human MAP4K4 kinase domain (Homo sapiens, UniProt O95819)", 0.0441],
  ["NCc1cnc(N)c2cc(-c3cccc(F)c3)ccc12 [Example 5]", "purified human MAP4K4 kinase domain (Homo sapiens, UniProt O95819)", 1.2]
]}

(1) Nc1ncc(C(=O)Nc2ccc(CO)cc2)c2ccc(-c3cccc(F)c3)cc12 [Example 63]
(2) CCOC(=O)c1cnc(N)c2nc(-c3cccc(F)c3)ccc12 [Example 118]
Which value of IC50 is smaller, the one for 1 or the one for 2 ? Answer = label.
2

(1) CN(C)CCNC(=O)c1cnc(N)c2cc(-c3cccc(F)c3)ccc12 [Example 46]
(2) Nc1ncc(C(=O)NC2CC(O)C2)c2ccc(-c3cccc(F)c3)cc12 (stereo not drawn) [Example 3]
Min IC50? 1 | 2 Lab log: write the label of the selected item as the result.
2

(A) Nc1ncc(C(=O)NCCCO)c2ccc(-c3cccc(F)c3)cc12 [Example 100]
(B) Nc1ncc(C(=O)NCC(=O)N2CCOCC2)c2ccc(-c3cccc(F)c3)cc12 [Example 81]
(C) CC(C)(CNC(=O)c1cnc(N)c2cc(-c3cccc(F)c3)ccc12)N1CCOCC1 [Example 88]
Rank entries according to their IC50, from the largest number down. Quick reminder: the answer is the labels in the order asked.
C, B, A
